system: P12-Ichikawa; test: AUC of viability dose-response curve (% viability x log10 dose units); higher = less sensitive; settings: RPMI 5 mM glucose + 10% FBS; 48 h
Measure Name: AUC of viability dose-response curve
// print number alone

State the recorded AUC of viability dose-response curve for this entry: COC1=CC=C2[N](CCCN(C)C)C=C(C2=C1)C/3=C(/C(=O)NC3=O)C4=C[NH]C5=C4C=CC=C5 453

Suppose we examine the compound C1COC(NC(C2CC2)C2CC2)=N1 ; what AUC of viability dose-response curve value has been reported? 459

Bench note: what AUC of viability dose-response curve did C[C@]\12CCC(=O)\C=C1[C@@H]3C[C@@H]3[C@@H]4[C@@H]2CC[C@@]5(C)[C@H]4[C@@H]6C[C@@H]6[C@@]57CCC(=O)O7 show? 468

Any idea what its AUC of viability dose-response curve is? The compound is CN1CCC(CC1)=C2C3=C(C=CC=C3)\C=C/C4=C2C=CC=C4 467

Requested field: AUC of viability dose-response curve. Item: N#Cc1ccc(NC(=O)Nc2ccccc2Br)c2nn[nH]c12 457

AUC of viability dose-response curve for CCOC(=O)[C@H]1O[C@@H]1C(=O)N[C@@H](CC(C)C)C(=O)NCCC(C)C ? 461

Given the entry C1CN\2C[C@@H](\N=C2S1)C3=CC=CC=C3 , report its measured AUC of viability dose-response curve. 462

Query: AUC of viability dose-response curve; subject: Nc1ccc([S+](=O)([O-])Nc2ncccn2)cc1 452

Return reported AUC of viability dose-response curve; argument: CS[C@H]1SC[C@@H]2C(=O)N(C)[C@H](C(C)C)C(=O)OC[C@H](NC(=O)c3cnc4ccccc4n3)C(=O)N[C@H](C)C(=O)N(C)[C@H]1C(=O)N(C)[C@H](C(C)C)C(=O)OC[C@H](NC(=O)c1cnc3ccccc3n1)C(=O)N[C@H](C)C(=O)N2C 148
